# Target Under Test: central-type benzodiazepine receptor (CBR)
# Protocol: Radioligand binding assay, displacement of [3H]flunitrazepam from rat cerebral cortex membranes

- Compound: "CCCN(CCC)C(=O)Cc1c(-c2ccc(Cl)cc2)nc2c(NC(=O)CNC(=O)C(CCC(=O)O)NC(=O)c3ccc(N(C)Cc4cnc5nc(N)nc(N)c5n4)cc3)cccn12 (centres unmarked) [Compound 3]"
  IC50: "> 100000 nM"
- Compound: "CCCN(CCC)C(=O)Cc1c(-c2ccc(Cl)cc2)nc2c(NC(=O)CNC(=O)CCC(NC(=O)c3ccc(N(C)Cc4cnc5nc(N)nc(N)c5n4)cc3)C(=O)O)cccn12 (centres unmarked) [Compound 4]"
  IC50: "> 100000 nM"

Numbers sourced from paper PMC4926499.
